assay: recombinant UMI read abundance after kanamycin selection (control-corrected) (log10(CPM+1)); higher = more efficient recombination; extreme values may be limits of the assay; sequences stand for … in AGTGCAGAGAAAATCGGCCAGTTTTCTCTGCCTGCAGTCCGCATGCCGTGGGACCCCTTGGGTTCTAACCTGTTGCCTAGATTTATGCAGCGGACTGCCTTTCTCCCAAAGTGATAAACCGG…AGGTTGGTTTCACT; site = the 11-nt donor;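 also: IS621 bridge recombinase in Escherichia coli cells against a fixed T5 target plasmid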
endpoint: recombinant UMI read abundance (log10)
Give a plain numeric answer without units written out.

Respond only with recombinant UMI read abundance (log10) recorded for ACAGCATCATGGACCGGTTTTCCCGGTAATCCGTATTTGTA (site ACAGCATCTTA) 2.85

Please look at this sequence and report its recombinant UMI read abundance (log10): CTTGTACCATGGACCGGTTTTCCCGGTAATCCGTATTTGAC (site CTTGTACCTGT) 0

Give recombinant UMI read abundance (log10) for AACAGAGCATGGACCGGTTTTCCCGGTAATCCGTATTTGAT (site AACAGAGCTAT) 2.02

State its recombinant UMI read abundance (log10): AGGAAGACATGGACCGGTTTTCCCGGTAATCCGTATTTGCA (site AGGCAGGCTTG) 0.0104

Find the measured recombinant UMI read abundance (log10) of ATAGCTGCATGGACCGGTTTTCCCGGTAATCCGTATTTGTG (site GTAGCTGCTCA) and report it. 0.00767

Complete the entry with recombinant UMI read abundance (log10) for CTAGTATCATGGACCGGTTTTCCCGGTAATCCGTATTTGGT (site CTAGTATCTGT) 2.06

Hello, please tell me recorded recombinant UMI read abundance (log10) for this one: GCTACTGCATGGACCGGTTTTCCCGGTAATCCGTATTTGGC (site GCTACTGCTGG) 0

Please report recombinant UMI read abundance (log10) for the following sequence: AGATAGGCATGGACCGGTTTTCCCGGTAATCCGTATTTGCT (site AGAAAGGCTAG) 0.622

Give the value of recombinant UMI read abundance (log10) reported for the following: TAACTGACATGGACCGGTTTTCCCGGTAATCCGTATTTGAT (site TAACTGACTAT) 1.54

###

test: recombinant UMI read abundance after kanamycin selection (control-corrected) (log10(CPM+1)); higher = more efficient recombination; extreme values may be limits of the assay; sequences stand for … in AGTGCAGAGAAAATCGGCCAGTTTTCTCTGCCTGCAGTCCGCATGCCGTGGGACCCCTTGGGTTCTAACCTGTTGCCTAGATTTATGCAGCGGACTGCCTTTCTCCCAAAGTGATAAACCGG…AGGTTGGTTTCACT; site = the 11-nt donor
Would you mind telling me the reported recombinant UMI read abundance (log10) of each entry?
Lab note: record the figure alone, no unit after it.

# return recorded recombinant UMI read abundance (log10) for entry ACGCATCCATGGACCGGTTTTCCCGGTAATCCGTATTTGAC (site ACCCATCCTGT) 0

Look up and state reported recombinant UMI read abundance (log10) for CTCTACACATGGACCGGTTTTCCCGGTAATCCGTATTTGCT (site CTCTACACTAA) 0.362

Indicate the recorded recombinant UMI read abundance (log10) value for this sequence: CGGTCATCATGGACCGGTTTTCCCGGTAATCCGTATTTGCT (site CGCTCATCTAG) 0

Consider the sequence GTCGGTCCATGGACCGGTTTTCCCGGTAATCCGTATTTGTA (site GTCGGTCCTTA) . State its measured recombinant UMI read abundance (log10). 0.0236

Write down recombinant UMI read abundance (log10) measured for item GCCGATACATGGACCGGTTTTCCCGGTAATCCGTATTTGTA (site GCCGATACTTA) 1.91

Dear colleague, please send me the reported recombinant UMI read abundance (log10) for TCACACTCATGGACCGGTTTTCCCGGTAATCCGTATTTGAT (site TCACACTCTAT) when you can. 2.38

Give recombinant UMI read abundance (log10) for the following sequence: TAGGAATCATGGACCGGTTTTCCCGGTAATCCGTATTTGTG (site TAGGAATCTCA) 3.2

Input GGATCATCATGGACCGGTTTTCCCGGTAATCCGTATTTGTG (site GGATCATCTCA) , output reported recombinant UMI read abundance (log10). 0.926

Quick one: give measured recombinant UMI read abundance (log10) for TACTTAACATGGACCGGTTTTCCCGGTAATCCGTATTTGCT (site TACTTAACTAG) 0.345

Tell me measured recombinant UMI read abundance (log10) for CATAGGGCATGGACCGGTTTTCCCGGTAATCCGTATTTGTC (site CATAGGGCTGA) please. 2.5

Given ACTAAAGCATGGACCGGTTTTCCCGGTAATCCGTATTTGAT (site CCTAAAGCTAT) , respond with its recombinant UMI read abundance (log10). 0

// Input: GTTGTTCCATGGACCGGTTTTCCCGGTAATCCGTATTTGGG (site GTTGTTCCTCC) . Output its recombinant UMI read abundance (log10) only. 0.0029

Give the reported value of recombinant UMI read abundance (log10) for this record: TATTTTGCATGGACCGGTTTTCCCGGTAATCCGTATTTGTG (site TATTTCGCTCA) 0.0112

Complete the entry with recombinant UMI read abundance (log10) for TCGACTCCATGGACCGGTTTTCCCGGTAATCCGTATTTGTC (site TCGACTCCTGA) 0

Using known records, supply recombinant UMI read abundance (log10) for GGCCTGGCATGGACCGGTTTTCCCGGTAATCCGTATTTGAG (site GGCCTGGCTCT) 0.666

Give me measured recombinant UMI read abundance (log10), please, for this sequence: GGTCCAGCATGGACCGGTTTTCCCGGTAATCCGTATTTGTA (site GGTCCATCTTA) 0.0161

Identify measured recombinant UMI read abundance (log10) corresponding to TGGAGCTCATGGACCGGTTTTCCCGGTAATCCGTATTTGCG (site TGGAGCTCTCG) 2.13

Read off the recorded recombinant UMI read abundance (log10) for CCACATCCATGGACCGGTTTTCCCGGTAATCCGTATTTGAC (site TCACATCCTGT) 0

Output recombinant UMI read abundance (log10) of CAGGCATCATGGACCGGTTTTCCCGGTAATCCGTATTTGCA (site CAGGCATCTTG) 2.53

Indicate its recorded recombinant UMI read abundance (log10); the sequence in question is ACCTAGACATGGACCGGTTTTCCCGGTAATCCGTATTTGAG (site ACCTAGACTCT) 1.17

Read the entry TCATACTCATGGACCGGTTTTCCCGGTAATCCGTATTTGTA (site TCATACTCTTC) and write its reported recombinant UMI read abundance (log10). 0.00471

# return recorded recombinant UMI read abundance (log10) for entry TCGGTTGCATGGACCGGTTTTCCCGGTAATCCGTATTTGGC (site TCGGTTGCTGC) 0.849

Provide measured recombinant UMI read abundance (log10) value, entry: CAAGCAGCATGGACCGGTTTTCCCGGTAATCCGTATTTGCA (site CAAGCAGCTAG) 1.22

Kindly indicate its recorded recombinant UMI read abundance (log10). Item: GTACTAACATGGACCGGTTTTCCCGGTAATCCGTATTTGGC (site GTACTAACTGC) 2.4

Give the value of recombinant UMI read abundance (log10) reported for the following: CTCTGGCCATGGACCGGTTTTCCCGGTAATCCGTATTTGCG (site CTCTGGCCTCG) 0

Give reported recombinant UMI read abundance (log10) value for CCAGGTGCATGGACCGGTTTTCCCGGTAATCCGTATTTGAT (site CCAGGTGCTAG) 0

Consider the sequence ACCGAGACATGGACCGGTTTTCCCGGTAATCCGTATTTGGG (site ACCAAGACTCC) and give its recorded recombinant UMI read abundance (log10). 0.109

Provide only the value of recorded recombinant UMI read abundance (log10) for GCCAAACCATGGACCGGTTTTCCCGGTAATCCGTATTTGGT (site GACAAACCTAC) 0

Please look at this sequence and report its recombinant UMI read abundance (log10): AACCAAACATGGACCGGTTTTCCCGGTAATCCGTATTTGTC (site AACCAAACTGA) 0

State its recombinant UMI read abundance (log10) for this sequence: GAGAAAACATGGACCGGTTTTCCCGGTAATCCGTATTTGCT (site GAGAAAACTAG) 1.16

Give recombinant UMI read abundance (log10) for the following sequence: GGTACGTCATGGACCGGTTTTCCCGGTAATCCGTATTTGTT (site GGTACGTCTAC) 0

Hello, please tell me recorded recombinant UMI read abundance (log10) for this one: GGATAGACATGGACCGGTTTTCCCGGTAATCCGTATTTGCT (site GGATAGACTTG) 1.1

In one line, give reported recombinant UMI read abundance (log10) of the entry TGTTCCTCATGGACCGGTTTTCCCGGTAATCCGTATTTGTC (site TGTTCCTCTGA) . 0.553

Please indicate recombinant UMI read abundance (log10) recorded for AATTCGTCATGGACCGGTTTTCCCGGTAATCCGTATTTGAA (site AATTCGTCTTT) 0.559

Supply reported recombinant UMI read abundance (log10) belonging to this sequence: ACTTCGACATGGACCGGTTTTCCCGGTAATCCGTATTTGCA (site ACTTCGACTTG) 1.84

Determine from records and report recombinant UMI read abundance (log10) for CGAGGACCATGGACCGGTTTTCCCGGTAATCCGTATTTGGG (site CGAGGCCCTCC) 0.0207
